Record form. Attribute: pEC50. Fill in for each entry.
Tested on: 3D7 strain of Plasmodium falciparum
Test: Potency in the 3D7 strain of Plasmodium falciparum (EC50)
Format: cell-based
Conditions: Plasmodium falciparum, 3D7
Numbers only, as −log10 of the molar value.

Hi there! I need pEC50 for each item below, if you can.
1. O=C(Nc1ccc(F)c(F)c1)c1ccnc2c1CN(Cc1ccccc1)CC2 [Compound 68]
2. CC(=O)O[C@H]1CO[C@H]2[C@@H]1OC[C@@H]2Oc1cccc(N2C(=O)c3c4c(nc5ccccc35)CCN(CCc3ccccc3)C42)c1 (stereo partly drawn) [Compound 183]

1: 5.46; 2: 7.39

# input molecule: O=C1c2c3c(nc4cc(Cl)ccc24)CCN(CCc2ccccc2)C3N1c1ccc(F)c(F)c1 (stereo not drawn) [Compound 172] ; wanted: its pEC50 8.15

Origin of measurements: patent US12370183B2
